assay: protein stability index of a GFP-peptide fusion (GPS, HEK-293T) (PSI 1-6); higher = more stable; settings: treatment: MLN4924 1 uM, 8 h; c terminus: a fixed tail appended;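 note: 24-mer peptide tiles fused after GFP, lentivirally expressed, FACS-sorted into six equal bins by GFP/DsRed ratio, decoded by Illumina sequencing, PSI is the read-weighted mean bin number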
measuredParameter: protein stability index

Report protein stability index, nothing else, for this sequence: SNGFPERDPPRPGPSRPAEKPPRP [GCH1]
4.99

Report protein stability index, nothing else, for this sequence: AASISDGDCDAREEKQRELARKGS [FAM219A]
5.52

Report protein stability index, nothing else, for this sequence: TAVHGRFTRSQTLIQNGGEIDCVD [ANKRD44]
4.48

Report protein stability index, nothing else, for this sequence: QALSGTPKKGPAPSLSPGSSCVKY [TSPAN10]
4.37

Report protein stability index, nothing else, for this sequence: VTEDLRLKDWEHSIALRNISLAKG [SCARA5]
3.59

Report protein stability index, nothing else, for this sequence: GRLPRIPQVLSQEFTELLKVMIHP [WEE1]
2.47

Report protein stability index, nothing else, for this sequence: MASPDDPLRADHMVKEPVEDTDPS [EDARADD]
5.63

Report protein stability index, nothing else, for this sequence: ARGSIVATYIFIFIGETLLSMNWA [SPNS1]
2.88

Report protein stability index, nothing else, for this sequence: RQMHLARFLRMLLRLADEFGVAVV [RAD51]
2.68

Report protein stability index, nothing else, for this sequence: AVPPTSSVPPVAGAPSVGQPGAGF [SNAP91]
4.42

Report protein stability index, nothing else, for this sequence: EFPEARIFEETLNILIYETPRGPD [KCTD13]
2.5

Report protein stability index, nothing else, for this sequence: TVDKCFGRKKYDIDPRNGIPKLTP [SPATS1]
3.51

Report protein stability index, nothing else, for this sequence: GVSRGVGFIRFDKRIEAEEAIKGL [ELAVL3]
4.05

Report protein stability index, nothing else, for this sequence: IEENITSAAPSNDQDGEYCPEVKL [SRPK2]
5.49

Report protein stability index, nothing else, for this sequence: IRDFEARKCPVHGKTMELFCQTDQ [TRIM29]
3.76

Report protein stability index, nothing else, for this sequence: PAFPFIYTPTAEDSAQMQNGGPST [ANKRD40]
4.5

Report protein stability index, nothing else, for this sequence: RFAWPKVLKISYKRNNFYIKIRPG [EPB41L3]
2.2

Report protein stability index, nothing else, for this sequence: KYKVHGKEILRTLQDVFCWLPLAT [PPEF2]
3.3

Report protein stability index, nothing else, for this sequence: CHLNGIVHRDLKPENLLLASKSKG [CAMK2D]
3.56

Report protein stability index, nothing else, for this sequence: PLTSHILRAFVNSQIQGHKEMSKV [SNX8]
2.21

Report protein stability index, nothing else, for this sequence: ESRQTEVVIRDIDERAMELLIDFA [KLHL20]
2.96

Report protein stability index, nothing else, for this sequence: LDMRRDHEEQLQRLKLLKDREVDA [FBF1]
4.91

Report protein stability index, nothing else, for this sequence: RNTPIEALCENFPEEMATYLRYVR [CSNK1G1]
2.9

Report protein stability index, nothing else, for this sequence: LMAPTCVFLASKVEEFGVVSNTRL [CCNC]
2.21

Report protein stability index, nothing else, for this sequence: VVEVENFLFVLGGEDQWNPNGKHS [KLHL14]
2.37

Report protein stability index, nothing else, for this sequence: LTSLKDLYKSLKTLSAELVPWLNL [CEP70]
3.07

Report protein stability index, nothing else, for this sequence: EALKHPWICQRSTVASMMHRQETV [CAMK2D]
2.73

Report protein stability index, nothing else, for this sequence: MLCAASGNPDPEITWFKDFLPVDT [PTPRD]
3.23

Report protein stability index, nothing else, for this sequence: LRLRKERVSDVQKVLQGGEQEIQF [PKD2L1]
3.77

Report protein stability index, nothing else, for this sequence: KMLRKEAAARCVVLDCRPYLAFAA [DUSP5]
2.51

Report protein stability index, nothing else, for this sequence: YNNDIDYYAKRNALRAAEVWMDDF [GALNT9]
2.99

Report protein stability index, nothing else, for this sequence: LKYENELALRQGVEADINGLRRVL [KRT15]
3.6

Report protein stability index, nothing else, for this sequence: RCGVGVSVLDDLLYAVGGHDGSSY [KLHL20]
2.13

Report protein stability index, nothing else, for this sequence: EERVRVLQGVRLSENVVNRMKEPS [CHCHD6]
4.64

Report protein stability index, nothing else, for this sequence: PEEPSAEDSINNSLVQLQASHQQQ [MYBL2]
5.55
